Biological target: human recombinant estrogen receptor alpha (Homo sapiens, UniProt P03372)
Construct: purchased PanVera Corporation
Sequence (P03372 whole entry): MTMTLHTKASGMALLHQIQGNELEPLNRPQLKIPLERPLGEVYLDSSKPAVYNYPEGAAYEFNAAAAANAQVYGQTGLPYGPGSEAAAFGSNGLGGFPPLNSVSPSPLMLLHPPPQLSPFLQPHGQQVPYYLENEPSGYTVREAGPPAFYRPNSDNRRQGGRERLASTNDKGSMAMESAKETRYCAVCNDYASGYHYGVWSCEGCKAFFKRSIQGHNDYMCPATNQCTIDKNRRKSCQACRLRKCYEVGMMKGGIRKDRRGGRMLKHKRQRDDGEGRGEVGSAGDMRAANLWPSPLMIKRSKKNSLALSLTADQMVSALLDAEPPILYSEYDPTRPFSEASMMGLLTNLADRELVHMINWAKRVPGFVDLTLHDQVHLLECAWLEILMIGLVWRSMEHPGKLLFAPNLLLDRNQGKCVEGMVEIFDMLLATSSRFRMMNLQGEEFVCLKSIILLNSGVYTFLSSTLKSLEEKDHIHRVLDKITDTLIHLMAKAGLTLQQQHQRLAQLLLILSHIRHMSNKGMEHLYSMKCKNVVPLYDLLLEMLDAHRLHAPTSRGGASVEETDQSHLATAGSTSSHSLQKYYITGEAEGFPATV
Assay: Estrogen receptor alpha binding assay, displacement of [3H] Estradiol

- Compound: "CC(C)=C(C)c1ccc2c(c1)c(-c1ccc(OCCN3CCCCC3)cc1)cc1cc(O)cc(C)c12 [formula 6]"
  IC50, nM: 18

----------
Target: human recombinant estrogen receptor beta (Homo sapiens, UniProt Q92731)
Sequence (Q92731 whole entry): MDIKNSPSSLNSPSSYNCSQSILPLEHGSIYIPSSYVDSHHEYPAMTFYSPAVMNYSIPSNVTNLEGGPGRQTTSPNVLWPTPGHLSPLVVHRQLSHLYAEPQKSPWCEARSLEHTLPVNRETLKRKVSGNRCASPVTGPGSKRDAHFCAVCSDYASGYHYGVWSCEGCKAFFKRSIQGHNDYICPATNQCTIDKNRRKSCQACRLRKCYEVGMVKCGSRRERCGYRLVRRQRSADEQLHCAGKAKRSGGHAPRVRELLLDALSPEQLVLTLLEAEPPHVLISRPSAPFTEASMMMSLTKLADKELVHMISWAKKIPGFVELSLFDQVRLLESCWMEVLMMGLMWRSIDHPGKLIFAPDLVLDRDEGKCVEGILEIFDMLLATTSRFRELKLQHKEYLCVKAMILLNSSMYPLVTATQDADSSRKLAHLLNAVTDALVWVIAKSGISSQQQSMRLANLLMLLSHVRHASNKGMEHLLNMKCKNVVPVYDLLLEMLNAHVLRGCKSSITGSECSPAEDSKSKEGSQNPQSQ
Experiment: Estrogen receptor beta binding assay, displacement of [3H] Estradiol

- Mol: "C=C(C)c1ccc2c(c1)c(-c1ccc(OCCN3CCCCC3)cc1)cc1cc(O)cc(C)c12"
  IC50 / nM: 20

----------
Biological target: human recombinant estrogen receptor alpha (Homo sapiens, UniProt P03372)
Construct: purchased PanVera Corporation
Experiment: Estrogen receptor alpha binding assay, displacement of [3H] Estradiol
Settings: 0.5 nM [3H] Estradiol, 2 hours at 25° C, 4.5 ng receptor protein; read-out: IC50 Value, ER Subtype Alpha
Below, each of the molecules is paired with its reported IC50 value.

- Mol: "Cc1cc(O)cc2cc(-c3ccc(OCCN4CCCCC4)cc3)c3cc(C(=O)C(C)C)ccc3c12"
  Tested On: "human recombinant estrogen receptor alpha (Homo sapiens, UniProt P03372)"
  IC50 / µM: 0.039
- Mol: "C=C(C)c1ccc2c(c1)c(-c1ccc(OCCN3CCCCC3)cc1)cc1cc(O)cc(C)c12"
  Tested On: "human recombinant estrogen receptor alpha (Homo sapiens, UniProt P03372)"
  IC50 / µM: 0.032
